assay: Caco2 (A-B/B-A) permeability; type: in vitro ADME; conditions: human, Caco-2, pH 7.4, apical-to-basolateral, 5 μM, HBSS pH 7.4, 120 min, 37° C.; read-out: Caco2 A-B apparent permeability (Papp)
Readout: Papp A→B at 120 min, 5 μM (×10⁻⁶ cm/s)

Worked examples, 3 compounds total:
| Compound | Recorded Number |
| --- | --- |
| CCc1cc2ncc(CN3CC4CN(c5ccc(C(=O)NC)nc5)CC4C3)cc2[nH]c1=O (stereo not shown) | 4.29 |
| CCc1cc2cnc([C@@H](C)N3CC(Oc4ccc(C(=O)NC)nc4)C3)cc2[nH]c1=O (single isomer, unassigned) | 4.82 |
| CCc1nc2ccc([C@H](C)N3CC(Oc4ccc(C(=O)NC)nc4)C3)cc2[nH]c1=O (single isomer, unassigned) | 14.9 |

I = CCc1cc2ncc(CN3CC[C@@H](N(C)c4ccc(C(=O)NC)nc4)C3)cc2[nH]c1=O (single isomer, unassigned; enantiomer 2)
II = CCc1cc2cnc(CN3CC[C@@H](Oc4ccc(C(=O)NC)nc4)C3)cc2[nH]c1=O
Request: Looking only at measured Papp A→B at 120 min, 5 μM, which entry is lower, I or II ? Provide the label of your selected option as the answer.
Result: I

1 = CCc1cc2ncc(CN3CCC(Nc4ccc(C(=O)NC)nc4)C3)cc2[nH]c1=O (stereo not shown)
2 = CCc1nc2ccc(CN3CC[C@@H](Oc4ccc(C(=O)NC)nc4)C3)cc2[nH]c1=O
Request: Select one: 1 or 2 . Criterion: greater recorded Papp A→B at 120 min, 5 μM. Provide the label of your selected option as the answer.
Result: 2

----------
biological target: Recombinant full length PARP1 (Homo sapiens (Human), UniProt P09874); assay: FP assay PARP1 (fluorescence anisotropy probe displacement); conditions: 20 nM PARP1, 8 nM fluorescent probe, 4 h, room temperature
Sequence (P09874 whole entry): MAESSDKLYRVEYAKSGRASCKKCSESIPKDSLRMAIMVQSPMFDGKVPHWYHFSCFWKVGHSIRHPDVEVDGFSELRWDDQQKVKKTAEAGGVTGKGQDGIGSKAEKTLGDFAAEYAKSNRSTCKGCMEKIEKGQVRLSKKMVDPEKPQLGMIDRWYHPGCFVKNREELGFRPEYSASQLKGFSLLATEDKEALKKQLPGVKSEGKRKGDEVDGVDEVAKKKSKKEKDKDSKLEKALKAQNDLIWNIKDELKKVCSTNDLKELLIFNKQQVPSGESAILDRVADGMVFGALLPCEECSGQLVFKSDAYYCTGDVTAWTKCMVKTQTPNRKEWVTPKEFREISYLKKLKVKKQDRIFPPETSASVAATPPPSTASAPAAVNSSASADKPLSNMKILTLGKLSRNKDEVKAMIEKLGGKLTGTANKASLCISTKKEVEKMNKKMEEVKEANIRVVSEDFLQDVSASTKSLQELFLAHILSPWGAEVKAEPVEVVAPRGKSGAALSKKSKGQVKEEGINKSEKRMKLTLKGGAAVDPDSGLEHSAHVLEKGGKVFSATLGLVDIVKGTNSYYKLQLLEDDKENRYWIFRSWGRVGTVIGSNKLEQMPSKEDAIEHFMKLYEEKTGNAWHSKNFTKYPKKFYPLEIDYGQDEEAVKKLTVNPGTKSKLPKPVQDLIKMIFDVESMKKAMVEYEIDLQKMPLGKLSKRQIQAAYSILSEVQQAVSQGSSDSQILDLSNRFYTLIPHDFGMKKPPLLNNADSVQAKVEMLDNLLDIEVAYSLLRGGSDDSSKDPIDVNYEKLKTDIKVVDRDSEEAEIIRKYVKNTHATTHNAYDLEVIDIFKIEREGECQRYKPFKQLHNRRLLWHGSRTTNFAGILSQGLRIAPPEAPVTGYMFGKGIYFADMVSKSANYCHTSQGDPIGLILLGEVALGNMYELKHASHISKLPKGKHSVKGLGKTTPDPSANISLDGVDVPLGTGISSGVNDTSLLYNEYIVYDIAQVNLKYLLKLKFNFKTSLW
Readout: IC50 (nM)

Worked examples, 2 compounds total:
| Compound | Unit Annotation | IC50 |
| --- | --- | --- |
| CCc1nc2ccc([C@H](C)N3CC(Oc4ccc(C(=O)NC)nc4)C3)cc2[nH]c1=O (single isomer, unassigned) [Compound 52] | nM | 35.2 |
| CCc1cc2ncc(C(C)N3CC(Oc4ccc(C(=O)NC)nc4C)C3)cc2[nH]c1=O (stereo not drawn) [Compound 19] | nM | 6.1 |

I = CCc1cc2ncc([C@H](C)N3CC(Oc4ccc(C(=O)NC)nc4)C3)cc2[nH]c1=O [Compound 5]
II = CCc1cc2ncc(CN3CC[C@@H](Oc4ccc(C(=O)NC)nc4F)C3)cc2[nH]c1=O [Compound 29]
III = CCc1nc2ccc(C(C)N3CC(Oc4ccc(C(=O)NC)nc4F)C3)c(F)c2[nH]c1=O (stereo not drawn) [Compound 55]
Request: # sort list by recorded IC50, greatest to least Please respond by ranking the labels in the order requested.
Result: III, II, I

----------
biological target: Recombinant full length PARP1 (Homo sapiens (Human), UniProt P09874); test: FP assay PARP1 (fluorescence anisotropy probe displacement); details: 20 nM PARP1, 8 nM fluorescent probe, 4 h, room temperature
pIC50: −log10 of the molar value.
Readout: pIC50

| Molecule | pIC50 |
| --- | --- |
| CCc1cc2cnc([C@H](C)N3CC(Oc4ccc(C(=O)NC)nc4F)C3)cc2[nH]c1=O (single isomer, unassigned; enantiomer 2) [Compound 50] | 7.74 |
| CNC(=O)c1ccc(O[C@@H]2CCN(Cc3cnc4cc(C5CC5)c(=O)[nH]c4c3)C2)cn1 (single isomer, unassigned) [Compound 60] | 7.19 |

P = CCc1cc2cnc(C(C)N3CC(Oc4ccc(C(=O)NC)nc4)C3)cc2[nH]c1=O (stereo not shown)
Q = CCc1cc2cnc(CN3CC[C@@H](Oc4ccc(C(=O)NC)nc4)C3)cc2[nH]c1=O
Request: Looking only at measured pIC50, which entry is lower, P or Q ? Provide the label of your selected option as the answer.
Result: Q

----------
test: Caco2 (A-B/B-A) permeability; format: in vitro ADME; conditions: human, Caco-2, pH 7.4, basolateral-to-apical, 5 μM, HBSS pH 7.4, 120 min, 37° C.; read-out: Caco2 B-A apparent permeability (Papp)
Readout: Papp B→A at 120 min, 5 μM (nm/s)

Worked examples, 5 compounds total:
| Compound | Recorded Number |
| --- | --- |
| CCc1cc2cnc(CN3CC[C@@H](Oc4ccc(C(=O)NC)nc4F)C3)cc2[nH]c1=O | 312 |
| CCc1cc2ncc(CN3C[C@@H](F)[C@@H](Oc4ccc(C(=O)NC)nc4)C3)cc2[nH]c1=O | 288 |
| CCc1cc2ncc(CN3CCC(Nc4ccc(C(=O)NC)nc4)C3)cc2[nH]c1=O (centres unmarked) | 224 |
| CCc1cc2ncc([C@@H](C)N3CC(Oc4ccc(C(=O)NC)nc4F)C3)cc2[nH]c1=O (single isomer, unassigned; enantiomer 1) | 439 |
| CNC(=O)c1ccc(OC2CN(Cc3cnc4cc(C5CC5)c(=O)[nH]c4c3)C2)cn1 | 308 |

P = CCc1cc2ncc(CN3CC(Oc4cnc(C(=O)NC)c(F)c4)C3)cc2[nH]c1=O
Q = CCc1nc2ccc(C(C)N3CC(Oc4ccc(C(=O)NC)nc4F)C3)c(F)c2[nH]c1=O (centres unmarked)
R = CCc1cc2cnc(CN3CC[C@@H](Oc4ccc(C(=O)NC)nc4)C3)cc2[nH]c1=O
Request: # sort list by recorded Papp B→A at 120 min, 5 μM, greatest to least Please respond by ranking the labels in the order requested.
Result: R, P, Q
(R: 426 nm/s, P: 283 nm/s, Q: 148 nm/s)

A = CCc1cc2ncc(CN3CC[C@@H](Oc4ccc(C(=O)NC)nc4)C3)cc2[nH]c1=O
B = CCc1nc2ccc([C@H](C)N3CC(Oc4ccc(C(=O)NC)nc4F)C3)cc2[nH]c1=O (single isomer, unassigned)
Request: Looking only at measured Papp B→A at 120 min, 5 μM, which entry is lower, A or B ? Provide the label of your selected option as the answer.
Result: B

a = CCc1cc2ncc(CN3CCC(Oc4ccc(C(=O)NC)nc4)C3)cc2[nH]c1=O (centres unmarked)
b = CCc1cc2ncc(CN3CC(Oc4ccc(C(=O)NC)nc4)C3)cc2[nH]c1=O
Request: Select one: a or b . Criterion: greater recorded Papp B→A at 120 min, 5 μM. Provide the label of your selected option as the answer.
Result: a
(a: 365 nm/s, b: 227 nm/s)

----------
target: Recombinant full length PARP1 (Homo sapiens (Human)); assay: FP assay PARP1 (fluorescence anisotropy probe displacement); conditions: 20 nM PARP1, 8 nM fluorescent probe, 4 h, room temperature
pIC50: −log10 of the molar value.
Readout: pIC50

| Molecule | Target System | Recorded Number |
| --- | --- | --- |
| CCc1cc2ncc(C(C)N3CC(Oc4ccc(C(=O)NC)nc4)C3)cc2[nH]c1=O (racemic) [Compound 43] | Recombinant full length PARP1 (Homo sapiens (Human)) | 8.23 |
| CCc1nc2ccc([C@H](C)N3CC(Oc4ccc(C(=O)NC)nc4F)C3)cc2[nH]c1=O (single isomer, unassigned) [Compound 57] | Recombinant full length PARP1 (Homo sapiens (Human)) | 8.14 |

1 = CNC(=O)c1ccc(OC2CCN(Cc3cnc4cc(C5CC5)c(=O)[nH]c4c3)C2)cn1 (stereo not shown) [Compound 14]
2 = CCc1cc2ncc(CN3CC[C@H](Oc4ccc(C(=O)NC)nc4)C3)cc2[nH]c1=O [Compound 58]
Request: Looking only at measured pIC50, which entry is lower, 1 or 2 ? Provide the label of your selected option as the answer.
Result: 2
(2: 7.35, 1: 8.18)

----------
assay: Caco2 (A-B/B-A) permeability; assay type: in vitro ADME; details: human, Caco-2, pH 7.4, apical-to-basolateral, 5 μM, HBSS pH 7.4, 120 min, 37° C.; read-out: Caco2 A-B apparent permeability (Papp)
Readout: Papp A→B at 120 min, 5 μM (×10⁻⁶ cm/s)

Worked examples, 5 compounds total:
| Compound | Readout | Recorded Number |
| --- | --- | --- |
| CCc1cc2ncc(CN3CCC(N(C)c4ccc(C(=O)NC)nc4)CC3)cc2[nH]c1=O [Compound 31] | Papp A→B at 120 min, 5 μM | 3.5 |
| CCc1cc2ncc(CN3CC(Oc4cnc(C(=O)NC)c(F)c4)C3)cc2[nH]c1=O [Compound 2] | Papp A→B at 120 min, 5 μM | 1.47 |
| CCc1cc2ncc([C@H](C)N3CC(Oc4ccc(C(=O)NC)nc4)C3)cc2[nH]c1=O [Compound 5] | Papp A→B at 120 min, 5 μM | 3.39 |
| CCc1cc2ncc(CN3C[C@@H](F)[C@@H](Oc4ccc(C(=O)NC)nc4)C3)cc2[nH]c1=O [Compound 8] | Papp A→B at 120 min, 5 μM | 2.45 |
| CNC(=O)c1ccc(OC2CN(Cc3cnc4cc(C5CC5)c(=O)[nH]c4c3)C2)cn1 [Compound 6] | Papp A→B at 120 min, 5 μM | 3.32 |

A = CCc1cc2ncc(CN3CC4CC3CN4c3ccc(C(=O)NC)nc3)cc2[nH]c1=O (stereo not drawn) [Compound 37]
B = CCc1cc2ncc([C@@H](C)N3CC(Oc4ccc(C(=O)NC)nc4)C3)cc2[nH]c1=O [Compound 4]
C = CCc1nc2ccc([C@H](C)N3CC(Oc4ccc(C(=O)NC)nc4F)C3)cc2[nH]c1=O (single isomer, unassigned) [Compound 56]
D = CCc1cc2cnc(CN3CC[C@@H](Oc4ccc(C(=O)NC)nc4F)C3)cc2[nH]c1=O [Compound 62]
Request: # sort list by recorded Papp A→B at 120 min, 5 μM, greatest to least Please respond by ranking the labels in the order requested.
Result: C, B, D, A
